TEST METHOD NOTES: in vitro
CONDITION DETAILS: human, hela cells, % viability
Checkbox rule: viability at 28.5 h, 10 µM lower than 90% = fulfilled; viability at 28.5 h, 10 µM not lower than 90% = not fulfilled.

As a guide, the following entries are already answered.
>>> df
                                   compound    label_value
0  Cc1nnc(CN(CC2CCCO2)C2CCC(C)CC2)o1 (stereo not drawn)  not fulfilled
1  O=C(O)CC1S/C(=N/N=C2/C(=O)Nc3ccccc32)N(c2ccc(O)cc2)C1=O (stereo not drawn)  not fulfilled

Lab note: confirm whether the reported viability at 28.5 h, 10 µM for this compound is below 90%, equality not counting. compound: C=C(Br)Cn1c(COc2cccc3ccccc23)nc2ccccc21
not fulfilled

The reported measurements were obtained from paper PMC12040169.
